Experiment: NCI Yeast Anticancer Drug Screen. Data for the rad50 strain (AID 155);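 further: 0% = growth of vehicle-only cultures of the same strain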
Details: S. cerevisiae rad50 strain growth inhibition; at 3.7 µM; hits give high values
About 79,000 compounds went through this panel and 15% of them were active in at least one assay; those are over-represented in the sample as a whole.
Parameter: growth inhibition (%)
Supply the numeric figure in %, leaving out any unit text.

The following molecules have reported results that may help.
Molecule | growth inhibition (%)
Cc1nc2ccccc2c(=O)n1NC(=O)c1ccc(CS)cc1 | 3
CC1C=CN(N(C)C)C2=C1C(=O)c1cnccc1C2=O (centres undefined) | 68
Clc1ccc(C(c2ccc(Cl)cc2)N2CCNCC2)cc1 | -1
CCCCCC/C(C)=N/Nc1ccc([N+](=O)[O-])cc1[N+](=O)[O-] | -18
CNC(=O)OCc1c(COC(=O)NC)c(C)n(-c2ccc(Cl)c(Cl)c2)c1C | -34
O=C1C(C(O)(C(F)(F)F)C(F)(F)F)CCC1C(O)(C(F)(F)F)C(F)(F)F (centres undefined) | -14
COc1ccc2nc3cccc([N+](=O)[O-])c3c(NCCCO)c2c1 | 93
CCSc1c2ccccc2c(-c2nc(F)nc(F)n2)n1CCc1ccccc1 | -10
O=C1OC(/C=C/c2ccccc2)Sc2ccccc21 (centres undefined) | 4
O=Cc1ccccc1B(O)O | 79

Record summary for `O=Cn1c2ccccc2c2ccccc21` : reported growth inhibition = -4

Record `COc1ccc(/C=C2\CCc3ccccc3C2=O)cc1OC` . Reported growth inhibition: -2

GET /value?item= `O=C(/C(=C/c1ccccc1)CBr)c1ccccc1` &field=growth inhibition returns 15

// recorded growth inhibition for `CCOC(=O)/C=C1\CCCn2c1ncc(C(=O)OCC)c2=O` : -8

Consider O=C1OC(c2ccc(Cl)cc2)Sc2ccccc21 (centres undefined) . Its measured growth inhibition is 13

molecule `Cc1cnc(/C=N\NC(N)=S)c2cccc(N)c12` , growth inhibition observed: -43

So for `O=C1C(Br)=CC(Br)(Br)C=C1Br` , the logged growth inhibition turned out to be -3

Form field growth inhibition, entry `Cc1c2ccncc2c(C)c2c1oc1ccccc12` : 87

Value of measured growth inhibition for the entry `CCCCCCCCCC/C=C\CC(=O)O` : -1

Sure, the documented growth inhibition for `Nc1c([N+](=O)[O-])cc2c3c(cccc13)CC2` is 67

get_value(item= CCOC(=O)C(NC(=O)c1ccccc1)[CH](c1ccccc1)[Sn]([c]1ccccc1)([c]1ccccc1)[c]1ccccc1 (centres undefined) , readout=growth inhibition) returns 3

Value of growth inhibition reported for the molecule `CCCC(=O)OC(OC(=O)CCC)c1ccc([N+](=O)[O-])o1` is -1

// `Cc1cc(N(CCOS(C)(=O)=O)CCOS(C)(=O)=O)ccc1C=O` : growth inhibition value = 16

Entry `CCOC(=O)c1sc2[n+](c1C)C(=O)/C(=C/c1cc(OC)c(OC)c(OC)c1)S2` ; growth inhibition = 16

* * *

# growth inhibition per entry
Experiment: NCI Yeast Anticancer Drug Screen. Data for the mlh1 strain (AID 171);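 further: 0% = growth of vehicle-treated control cultures of the same strain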
Settings: S. cerevisiae mlh1 strain growth inhibition; at 11.0 µM; hits give high values
Compounds without any hit were thinned out: in the full panel of roughly 79,000, 15% have a hit.
State the answer as a number, implicitly in %.

Look over these answered cases.
Compound | growth inhibition / %
O=Cn1c2ccccc2c2ccccc21 | 4
CC1=NN(C(=O)CC(=O)N(C(=O)c2ccccc2)c2ccc(Cl)cc2)C(=O)C1N=Nc1ccc([N+](=O)[O-])cc1 (centres undefined) | 36
Cc1ccc(SSc2ccc(C)cc2[N+](=O)[O-])c([N+](=O)[O-])c1 | -1
O=CC(=C(I)I)c1ccccc1 | 81
CCCCCC(=O)C(C)(c1nc2n(c1O)/C(=N/C(=O)Nc1ccc(Cl)cc1)N=N2)c1nc2n(c1O)/C(=N/C(=O)Nc1ccc(Cl)cc1)N=N2 | 6

# growth inhibition of `C[n+]1c(-c2ccc(NC(=O)c3ccc(C(=O)Nc4ccc(-c5cn6ccccc6[n+]5C)cc4)cc3)cc2)cn2ccccc21` = 23

get_value(item= CC(O)CN1C(=O)c2cccc3cc([N+](=O)[O-])cc(c23)C1=O (centres undefined) , readout=growth inhibition) returns 14

Documented growth inhibition of `CNC(=O)OCc1c(COC(=O)NC)c(C)n(-c2ccc(Cl)c(Cl)c2)c1C` : 10

Record summary for `O=C1c2ccccc2C(=O)C1C(c1ccc(F)cc1)C1C(=O)c2ccccc2C1=O` : reported growth inhibition = -16

* * *

Experiment: NCI Yeast Anticancer Drug Screen. Data for the rad50 strain (AID 155);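 further: 0% = growth of vehicle-only cultures of the same strain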
Conditions: S. cerevisiae rad50 strain growth inhibition; at 100.0 µM; hits give high values
Compounds without any hit were thinned out: in the full panel of roughly 79,000, 15% have a hit. Activity calls are given as the source filed them. No stated cut-off is given here; in the data, active means growth inhibition above about 70%; inactive means the rest.
Parameter: growth inhibition

Illustrative cases are given below, each with its answer.
Compound | Assay result
c1cc2ccc3cc4ncccc4c4ccc(c1)c2c34 | 93% (active)
O=S(=O)(O)c1ccc2c(N=Nc3c(O)ccc4ccccc34)cccc2c1 | 85% (active)
Cc1ccc(C(C)C)c(C(=C2C=CC(=[N+](C)C)C=C2)c2c(C(C)C)ccc(C)c2O)c1O | 81% (active)
O=C(c1c(F)c(F)c(F)c(F)c1F)c1c(F)c(F)c(F)c(F)c1F | 95% (active)
C[Si](C)(C)Cc1ccccc1C(=O)O | 98% (active)
CSc1ccc2c(c1)C(N1CCN(C)CC1)Cc1ccccc1S2 (configuration not stated) | 98% (active)

Summary for this compound, CC(C)(C)[Si](C)(C)OCC1OC(n2cnc3c(N)ncnc32)C2OC(=S)OC12 (configuration not stated) : growth inhibition is 98% (active)

* * *

Assay: NCI Yeast Anticancer Drug Screen. Data for the mlh1 strain (AID 171);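 further: 0% = growth of vehicle-treated control cultures of the same strain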
Settings: S. cerevisiae mlh1 strain growth inhibition; at 3.7 µM; hits give high values
This is part of a sample that, as a whole, favours compounds with a hit. Of some 79,000 tested, about 15% had one in any assay.
Label met when growth inhibition >= -20%; otherwise not met.

Observe how each entry below is paired with its result.
Compound | Class name
Cc1cnccc1N=Nc1ccc(N(C)C)cc1 | met
COc1ccc(/C=C2\S/C(=N/Nc3nc(-c4ccccc4)cs3)NC2=O)cc1OC | met
Cc1ccc(C(C)C)c(C(=C2C=CC(=[N+](C)C)C=C2)c2c(C(C)C)ccc(C)c2O)c1O | met
CC1C=CN(N(C)C)C2=C1C(=O)c1cnccc1C2=O (configuration not stated) | not met

Confirm if growth inhibition reported for the compound `CC(=O)CC[N+](C)(C)C` is -20% or above. met

Given `CCCCOc1ccc(Nc2c3ccccc3nc3ccccc23)cc1` , state whether its growth inhibition is at least -20%. not met

* * *

Assay: NCI Yeast Anticancer Drug Screen. Data for the CLN2oe strain (AID 163);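 further: 0% = growth of vehicle-only control cultures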
Conditions: S. cerevisiae CLN2oe strain, at 33.0 µM
About 79,000 compounds went through this panel and 15% of them were active in at least one assay; those are over-represented in the sample as a whole. Activity calls are given as the source filed them. Rule as the data show it: active = growth inhibition above about 70%; inactive = the rest.
Select the correct class. Options are class 1 (active), class 0 (inactive) and nothing else.

Here's what some known entries look like.
Compound | Class name
CN(Cc1cccc2ccccc12)Cc1cccc2ccccc12 | class 0
COc1ccc(/C(=N/O)c2ccccc2C2=Nc3ccccc3C(NCc3ccccc3)O2)cc1C (configuration not stated) | class 0

I would be grateful if you could indicate the recorded call for `Cc1c2ccncc2c(C)c2c1oc1ccccc12` . class 1

Write down the call the test reported for this compound. Item: `O=C(Cc1ccccc1F)NC1=C(Cl)C(=O)c2ccccc2C1=O` class 0

Tell me the recorded outcome of this test for `O=C(CCC(=O)c1ccc(O)cc1)Oc1ccc(O)cc1` . class 0

* * *

Assay: NCI Yeast Anticancer Drug Screen. Data for the sgs1 strain (AID 173);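 further: 0% = growth of vehicle-only control cultures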
Settings: S. cerevisiae sgs1 mutant, at 1.2 µM, hits give high values
This is part of a sample that, as a whole, favours compounds with a hit. Of some 79,000 tested, about 15% had one in any assay.
Parameter: growth inhibition (%)
Write the answer as a number in %, unit excluded.

Below, 5 compounds whose answers are already recorded.
Compound | growth inhibition (%)
CN(C)N=Nc1ccc(NC=O)cc1 | 2
CCC(C)/C(C)=N/NC(N)=O (configuration not stated) | 0
CCCCCCC(CCl)c1sc(-c2csc(CCNC(=O)OC(C)(C)C)n2)nc1C(=O)OC (configuration not stated) | -2
CC[C@@]1(OC(=O)CN(C)C)C(=O)OCc2c1cc1n(c2=O)Cc2cc3ccccc3nc2-1 | 6
Nc1cccc2cc(Cl)cnc12 | -32

Here's the next entry for you.
The compound listed as `CN(C)CCNC(=O)c1cccc2nc3c(ccc4ccccc43)nc12` has a reported growth inhibition of -4

* * *

Assay: NCI Yeast Anticancer Drug Screen. Data for the bub3 strain (AID 167)
Details: S. cerevisiae bub3 mutant strain, at 50.0 µM (retest, dose inferred, filed as 5.0), hits give high values
This is part of a sample that, as a whole, favours compounds with a hit. Of some 79,000 tested, about 15% had one in any assay.
Would you mind labelling by growth inhibition? At or over 90% is Satisfied, under is Not satisfied.

The following molecules have reported results that may help.
Molecule | Class name
CCOC(=O)c1[nH]c2cccc3c2c1CC(Br)C3=O (stereo unspecified) | Satisfied
CCN(CC)c1ccc(N=Nc2cc(S(=O)(=O)O)ccc2O)c(O)c1 | Not satisfied

Quick check, growth inhibition >= 90%? `CN(C)N1C(=O)SCC(c2ccccc2)(c2ccccc2)C1=O` Not satisfied

Could you please find out whether O=C1c2ccccc2-c2ccc(NC(=O)C3CCCCC3C(=O)O)cc21 (stereo unspecified) has growth inhibition that meets 90% or exceeds it? Not satisfied

Is the recorded value of growth inhibition equal to or greater than 90% for this molecule? `COc1ccc2nc(N/N=C/c3sccc3C)cc(C)c2c1` Satisfied

Textbook exercise: given the entry `Cc1nc2ccc(NCCN(C)C)c3c(=O)c4ccccc4n1c23` , state whether its growth inhibition is greater than or equal to 90%. Not satisfied

Ref: PubChem BioAssay (NCI)
